The reported measurements were obtained from paper PMC2721768.

- testedTarget: rat NTPDase1 (Rattus norvegicus, UniProt P97687)
- Sequence (P97687 1-511): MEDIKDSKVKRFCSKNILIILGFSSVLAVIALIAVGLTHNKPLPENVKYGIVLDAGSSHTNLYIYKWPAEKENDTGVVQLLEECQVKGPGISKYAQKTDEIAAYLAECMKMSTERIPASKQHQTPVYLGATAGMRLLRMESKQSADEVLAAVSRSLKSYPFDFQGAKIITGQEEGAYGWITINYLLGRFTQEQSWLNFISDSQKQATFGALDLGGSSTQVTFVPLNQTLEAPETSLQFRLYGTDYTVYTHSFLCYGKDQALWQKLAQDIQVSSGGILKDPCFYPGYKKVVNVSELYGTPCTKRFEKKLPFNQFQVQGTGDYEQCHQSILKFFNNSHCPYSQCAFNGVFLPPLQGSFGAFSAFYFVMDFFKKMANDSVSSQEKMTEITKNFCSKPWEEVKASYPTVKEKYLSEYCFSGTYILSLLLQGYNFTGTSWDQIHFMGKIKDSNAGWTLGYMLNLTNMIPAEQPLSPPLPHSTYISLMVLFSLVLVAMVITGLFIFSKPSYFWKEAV
testReadout: Ki (µM)
Please give a number only; it is taken to be in µM.

Given item COc1ccc(CCNc2cc(S(=O)(=O)O)c(N)c3c2C(=O)c2ccccc2C3=O)cc1OC , the value recorded as its Ki is 173

* * *

Recorded measurements of inhibition at 1000 µM, one per entry
- testedTarget: rat NTPDase2 (Rattus norvegicus, UniProt O35795)
- Sequence (O35795 1-495): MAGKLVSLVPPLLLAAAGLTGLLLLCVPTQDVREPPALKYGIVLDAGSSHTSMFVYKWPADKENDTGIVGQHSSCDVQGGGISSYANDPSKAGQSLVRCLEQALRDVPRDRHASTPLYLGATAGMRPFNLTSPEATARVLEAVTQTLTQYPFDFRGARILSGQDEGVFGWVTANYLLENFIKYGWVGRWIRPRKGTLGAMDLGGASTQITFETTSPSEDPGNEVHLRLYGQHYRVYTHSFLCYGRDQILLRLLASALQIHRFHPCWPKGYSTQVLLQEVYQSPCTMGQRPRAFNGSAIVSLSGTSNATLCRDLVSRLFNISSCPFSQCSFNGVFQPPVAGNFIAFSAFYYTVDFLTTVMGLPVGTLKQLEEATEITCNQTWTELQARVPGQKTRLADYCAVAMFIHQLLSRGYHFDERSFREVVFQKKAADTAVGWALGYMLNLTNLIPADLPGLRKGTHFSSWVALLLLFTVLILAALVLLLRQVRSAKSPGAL
- protocolSummary: Inhibition of rat NTPDase2
- experimentalConditions: read-out: percent inhibition at 1 mM NTPDase2
Please give a number only; it is taken to be in %.

// below: answered compounds
compound: Nc1c(S(=O)(=O)Oc2ccccc2[N+](=O)[O-])cc(Br)c2c1C(=O)c1ccccc1C2=O [Compound 28]
quantityUnit: %
inhibition at 1000 µM: 0
//
compound: Nc1c(S(=O)(=O)[O-])cc(Nc2cccc3ccccc23)c2c1C(=O)c1ccccc1C2=O.[Na+] [Compound 20]
quantityUnit: %
inhibition at 1000 µM: 0
//
compound: Cc1cc(Nc2ccccc2)c2c(c1N)C(=O)c1ccccc1C2=O [Compound 23]
quantityUnit: %
inhibition at 1000 µM: 0
//
compound: Nc1c(S(=O)(=O)Nc2ccccc2)cc(Br)c2c1C(=O)c1ccccc1C2=O [Compound 31]
quantityUnit: %
inhibition at 1000 µM: 0
//
compound: Cc1cc(Nc2cccc3ccccc23)c2c(c1N)C(=O)c1ccccc1C2=O [Compound 26]
quantityUnit: %
inhibition at 1000 µM: 0

Value sought: inhibition at 1000 µM, system rat NTPDase2 (Rattus norvegicus, UniProt O35795), item Cc1cccc(Nc2cc(C)c(N)c3c2C(=O)c2ccccc2C3=O)c1 [Compound 24] . Result: 0

Value sought: inhibition at 1000 µM, system rat NTPDase2 (Rattus norvegicus, UniProt O35795), item COS(=O)(=O)c1cc(Br)c2c(c1N)C(=O)c1ccccc1C2=O [Compound 27] . Result: 0
